System: DLD-1
assaySummary: cells
Type: cell-based
measurementSetup: assay number 23; basal
This listing pairs molecules with measured Basal_Viability ATP DLD-1 IC50/EC50.
Write down the numeric answer in µM and omit the unit.

Study these solved cases before continuing.
COCc1c(C(C)C)nc(C(C)C)c(/C=C/[C@@H](O)C[C@@H](O)CC(=O)[O-])c1-c1ccc(F)cc1.[Na+] | 2.507
CCCCCCCC[N+](C)(C)CCCCCCCC | 3.2197
O=[N+]([O-])c1ccc(Oc2ccc(N=C=S)cc2)cc1 | 2.102

Attention now shifts to the item below.
Write down Basal_Viability ATP DLD-1 IC50/EC50 measured for item "O=C(CCl)c1ccc(Cl)cc1Cl" 2.0651

* * *

targetDesc: hp70S6K1 (RPS6KB1) (Homo sapiens)
Construct: purchased Cerep (LANCE kinase assay platform, contract assay)
Sequence (P23443 whole entry): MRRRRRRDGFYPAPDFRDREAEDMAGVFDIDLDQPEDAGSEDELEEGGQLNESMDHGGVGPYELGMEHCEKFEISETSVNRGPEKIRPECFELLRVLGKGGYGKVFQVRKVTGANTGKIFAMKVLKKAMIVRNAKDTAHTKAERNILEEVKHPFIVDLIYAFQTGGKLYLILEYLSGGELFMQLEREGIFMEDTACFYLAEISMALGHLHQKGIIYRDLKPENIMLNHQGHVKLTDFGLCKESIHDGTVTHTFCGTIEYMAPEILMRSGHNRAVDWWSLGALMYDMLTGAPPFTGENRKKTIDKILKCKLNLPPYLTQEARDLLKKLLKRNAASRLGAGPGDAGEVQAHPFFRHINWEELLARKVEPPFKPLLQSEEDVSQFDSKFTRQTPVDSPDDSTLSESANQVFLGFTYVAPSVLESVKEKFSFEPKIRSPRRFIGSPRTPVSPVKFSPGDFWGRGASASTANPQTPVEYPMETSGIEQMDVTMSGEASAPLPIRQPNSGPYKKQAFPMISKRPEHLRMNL
assaySummary: Cerep LANCE kinase assay hp70S6K1 (S1 assay 31)
Format: biochemical
measurementSetup: kinase assay; read-out: p70S6K1
measurementName: IC50

Study these solved cases before continuing.
O=c1c(-c2ccccc2)c1-c1ccccc1 | > 20 µM
Sc1ncnc2nc[nH]c12 | > 20 µM
Cc1nc(N)nc(N)c1-c1ccc(Cl)c(Cl)c1 [metoprine, reference compound] | > 20 µM
COc1cc([C@@H]2c3cc4c(cc3[C@H](O)[C@H]3COC(=O)[C@H]23)OCO4)cc(OC)c1OC | > 20 µM
COc1ccc(-c2ccc3cc(C(=O)O)ccc3c2)cc1C12CC3CC(CC(C3)C1)C2 | > 20 µM
COC(=O)Nc1nc2ccc(C(=O)C3CC3)cc2[nH]1 | > 20 µM
O=C1c2c(O)ccc(O)c2C(=O)c2c(NCCNCCO)ccc(NCCNCCO)c21 | > 20 µM
O=c1[nH]c(=O)n([C@H]2C[C@H](O)[C@@H](CO)O2)cc1C(F)(F)F | > 20 µM

Report measured IC50 on hp70S6K1 (RPS6KB1) (Homo sapiens); entry: COC(=O)Nc1nc2ccc([S+]([O-])c3ccccc3)cc2[nH]1 (centres unmarked) > 20 µM

Report measured IC50 on hp70S6K1 (RPS6KB1) (Homo sapiens); entry: "Cc1cc(O)c2c3c4c(cc(O)c13)C(C)(C)C(=O)c1c(O)cc(O)c(c1-4)C2=O" > 20 µM

Report measured IC50 on hp70S6K1 (RPS6KB1) (Homo sapiens); entry: "COc1cc(-c2ccc(=O)[nH]n2)ccc1OC(F)F" > 20 µM

Report measured IC50 on hp70S6K1 (RPS6KB1) (Homo sapiens); entry: "Cc1cc(C2CCCCC2)n(O)c(=O)c1" > 20 µM

Report measured IC50 on hp70S6K1 (RPS6KB1) (Homo sapiens); entry: "COC(=O)Nc1nc2ccc(C(=O)c3cccs3)cc2[nH]1" > 20 µM

Report measured IC50 on hp70S6K1 (RPS6KB1) (Homo sapiens); entry: "Nc1nc2nc[nH]c2c(=S)[nH]1" > 20 µM

Report measured IC50 on hp70S6K1 (RPS6KB1) (Homo sapiens); entry: "COC(=O)c1nc(Cl)c(Cl)nc1N" > 20 µM

Report measured IC50 on hp70S6K1 (RPS6KB1) (Homo sapiens); entry: C[n+]1c2cc(N)ccc2cc2ccc(N)cc21 [Acriflavinium chloride] 6.57 µM

Report measured IC50 on hp70S6K1 (RPS6KB1) (Homo sapiens); entry: COCc1c(C(C)C)nc(C(C)C)c(/C=C/[C@@H](O)C[C@@H](O)CC(=O)O)c1-c1ccc(F)cc1 [cerivastatin, reference compound] > 20 µM

Report measured IC50 on hp70S6K1 (RPS6KB1) (Homo sapiens); entry: "O=C(CCCCCCC(=O)Nc1ccccc1)NO" > 20 µM

Report measured IC50 on hp70S6K1 (RPS6KB1) (Homo sapiens); entry: O=C(Nc1ccc([N+](=O)[O-])cc1Cl)c1cc(Cl)ccc1O [Niclosamide] > 20 µM

* * *

Tested on: HCT116
assaySummary: cells
Type: cell-based
measurementSetup: Homo sapiens, HCT-116, read-out: Basal_Viability ATP HCT116
measurementName: IC50 (nM)
Write down the numeric answer in nM and omit the unit.

Study these solved cases before continuing.
Oc1c(I)cc(I)c2cccnc12 [Diiodohydroxyquinoline] | 41
CCc1nc(N)nc(N)c1-c1ccc(Cl)cc1 [pyrimethamine, reference compound] | 18200
CN(C)c1ccc(C(=C2C=CC(=[N+](C)C)C=C2)c2ccccc2)cc1 [malachite green] | 17.9
Cn1cnc([N+](=O)[O-])c1Sc1ncnc2nc[nH]c12 [Azathioprine] | 207

Attention now shifts to the item below.
Write down IC50 measured for item Cc1cc(O)c2c3c4c(cc(O)c13)C(C)(C)C(=O)c1c(O)cc(O)c(c1-4)C2=O [Heliomycin] 77.5

* * *

Tested on: ECFC/ADSC co-culture cell nuclei number
measurementSetup: read-out: VEGF_ADSC\ECFC Angio Hoechst NucArea summarized IC50
pIC50: −log10 of the molar value.
measurementName: pIC50

Study these solved cases before continuing.
O=[N+]([O-])c1cc(I)c(O)c(I)c1 | < 5.00
CCOP(=S)(OCC)SCSc1ccc(Cl)cc1 | < 5.00
Nc1nc(=S)c2[nH]cnc2[nH]1 | < 5.00
Cc1ccc2c(Br)cc(Br)c(O)c2n1 | < 5.00
Oc1ccc(Cl)cc1Sc1cc(Cl)ccc1O | 5.06

Attention now shifts to the item below.
Write down pIC50 measured for item "Oc1cc(Cl)ccc1Oc1ccc(Cl)cc1Cl" 5.09

* * *

Test system: Colo320
assaySummary: cells
Type: cell-based
measurementSetup: assay number 27
measurementName: Basal_Viability ATP Colo 320 IC50/EC50

Cl.O=C1[C@H]2CCCC[C@H]2C(=O)N1CCCCN1CCN(c2nsc3ccccc23)CC1 [NCGC00164567-02] | 13.2075 µM
COc1cc(NCc2ccc3nc(N)nc(N)c3c2C)cc(OC)c1OC [NCGC00161419-05] | 0.3859 µM
O=C(O)c1ccc(-n2nc(-c3ccccc3O)nc2-c2ccccc2O)cc1 [NCGC00263572-01] | 0.4085 µM
CC(C)NCC(O)COc1ccc(CCOCC2CC2)cc1 (stereo not drawn) [NCGC00015159-11] | 6.1657 µM
CC(=O)Oc1ccc(C2(c3ccc(OC(C)=O)cc3)Oc3ccccc3NC2=O)cc1 [NCGC00182998-01] | > 20 µM

Attention now shifts to the item below.
Write down Basal_Viability ATP Colo 320 IC50/EC50 measured for item CCCCCCCCCCCCCC[N+](C)(C)C.[Br-] [NCGC00166121-03] 2.516 µM

* * *

This listing pairs compounds with measured IC50.
System: RKO
assaySummary: cells
Type: cell-based
measurementSetup: Homo sapiens, RKO; read-out: Basal_Viability ATP RKO
Write down the numeric answer in nM and omit the unit.

CC(C)C[C@H](NC(=O)[C@H](CCc1ccccc1)NC(=O)CN1CCOCC1)C(=O)N[C@@H](Cc1ccccc1)C(=O)N[C@@H](CC(C)C)C(=O)[C@@]1(C)CO1 [carfilzomib, reference compound] | 3.94
CCN(CC)CCCC(C)Nc1c2ccc(Cl)cc2nc2ccc(OC)cc12 (stereo not drawn) | 3420

Attention now shifts to the item below.
Write down IC50 measured for item "CC(=O)O[C@@]12CO[C@@H]1C[C@H](O)[C@@]1(C)C(=O)[C@H](O)C3=C(C)[C@@H](OC(=O)[C@H](O)[C@@H](NC(=O)OC(C)(C)C)c4ccccc4)C[C@@](O)([C@@H](OC(=O)c4ccccc4)[C@H]21)C3(C)C" 1

* * *

This listing pairs molecules with measured IC50/EC50, WntCondMedia_bCatenin C2C12 (assay number 5).
Test system: nuclear β-catenin in C2C12 cells
assaySummary: cells
Type: cell-based
measurementSetup: concentration response

COC(=O)Nc1nc2ccc(C(=O)c3ccccc3)cc2[nH]1 | 1.7387 µM
CCc1nc(N)nc(N)c1-c1ccc(Cl)cc1 | 0.86 µM

Report measured IC50/EC50, WntCondMedia_bCatenin C2C12 (assay number 5) on nuclear β-catenin in C2C12 cells; entry: "C[n+]1c2cc(N)ccc2cc2ccc(N)cc21" > 20 µM

Report measured IC50/EC50, WntCondMedia_bCatenin C2C12 (assay number 5) on nuclear β-catenin in C2C12 cells; entry: "CCCCc1ccc2nc(NC(=O)OC)[nH]c2c1" 0.0336 µM

Report measured IC50/EC50, WntCondMedia_bCatenin C2C12 (assay number 5) on nuclear β-catenin in C2C12 cells; entry: "NC(N)=NN=C(/C=C/c1ccc([N+](=O)[O-])o1)/C=C/c1ccc([N+](=O)[O-])o1" > 20 µM

Report measured IC50/EC50, WntCondMedia_bCatenin C2C12 (assay number 5) on nuclear β-catenin in C2C12 cells; entry: "COC(=O)Nc1nc2ccc(Sc3ccccc3)cc2[nH]1" 4.8413 µM

Report measured IC50/EC50, WntCondMedia_bCatenin C2C12 (assay number 5) on nuclear β-catenin in C2C12 cells; entry: "CN1C[C@H](CNC(=O)OCc2ccccc2)C[C@@H]2c3cccc4c3c(cn4C)C[C@H]21" > 20 µM

Ref: paper PMC4503722
